Tested on: COR-L 105
Assay: relative viability (nuclei count vs DMSO), 5 days (fraction); higher = more cells survive
Experimental Parameters: first compound 0.2 µM
Task for the reader: assign each of the following compounds its reported relative viability.
Answers are plain numbers.

* Cc1csc(=NC2CCCCC2)n1/N=C/c1ccc(O)c(O)c1O [MIM1] + N=C(N)NC(=N)NCCc1ccccc1 [Phenformin] (partner 250 µM) | 0.513

// each listed compound needs a value for relative viability
1. Cc1csc(=NC2CCCCC2)n1/N=C/c1ccc(O)c(O)c1O [MIM1] + CC(=O)c1c(C)c2cnc(Nc3ccc(N4CCNCC4)cn3)nc2n(C2CCCC2)c1=O [Palbociclib] (partner 0.5 µM)
2. CCNC(=O)c1noc(-c2cc(C(C)C)c(O)cc2O)c1-c1ccc(CN2CCOCC2)cc1 [Luminespib] + Cc1nc(Nc2ncc(C(=O)Nc3c(C)cccc3Cl)s2)cc(N2CCN(CCO)CC2)n1 [Dasatinib] (partner 0.075 µM)

Outgoing:
1. 0.472
2. 0.145

###

Tested on: ABC-1
Assay: relative viability (nuclei count vs DMSO), 5 days (fraction); higher = more cells survive
Experimental Parameters: first compound 2.53 µM
Quantity: relative viability
One number for each entry.

- Nc1cccc2c1CN(C1CCC(=O)NC1=O)C2=O (configuration not stated) [Lenalidomide] + C[C@]1(O)C[C@@H](c2nc(-c3ccc4ccc(-c5ccccc5)nc4c3)c3c(N)nccn32)C1 [Linsitinib] (partner 1 µM): 0.71

// each listed compound needs a value for relative viability
1. Nc1cccc2c1CN(C1CCC(=O)NC1=O)C2=O (configuration not stated) [Lenalidomide] + CS(=O)(=O)N1CCN(Cc2cc3nc(-c4cccc5[nH]ncc45)nc(N4CCOCC4)c3s2)CC1 [Pictilisib] (partner 1 µM)
2. Nc1cccc2c1CN(C1CCC(=O)NC1=O)C2=O (configuration not stated) [Lenalidomide] + N=C(N)NC(=N)NCCc1ccccc1 [Phenformin] (partner 250 µM)
3. Nc1cccc2c1CN(C1CCC(=O)NC1=O)C2=O (configuration not stated) [Lenalidomide] + Cc1cc(Nc2cc(N3CCN(C)CC3)nc(Sc3ccc(NC(=O)C4CC4)cc3)n2)n[nH]1 [Tozasertib] (partner 0.1 µM)
4. Nc1cccc2c1CN(C1CCC(=O)NC1=O)C2=O (configuration not stated) [Lenalidomide] + Nc1ncn([C@H]2C[C@H](O)[C@@H](CO)O2)c(=O)n1 [Decitabine] (partner 2 µM)
5. Nc1cccc2c1CN(C1CCC(=O)NC1=O)C2=O (configuration not stated) [Lenalidomide] + CC(C)C[C@H](NC(=O)[C@H](Cc1ccccc1)NC(=O)c1cnccn1)B(O)O [Bortezomib] (partner 0.002 µM)

Outgoing:
1: 0.719; 2: 0.27; 3: 0.184; 4: 0.827; 5: 0.278

Incoming: Look up relative viability: Nc1cccc2c1CN(C1CCC(=O)NC1=O)C2=O (configuration not stated) [Lenalidomide] + O=C(CCCCCCC(=O)Nc1ccccc1)NO [Vorinostat] (partner 1 µM)
Outgoing: 1.36

###

Task for the reader: assign each of the following molecules its reported relative viability.
Tested on: A-427
Assay: relative viability (nuclei count vs DMSO), 5 days (fraction); higher = more cells survive
Experimental Parameters: first compound 0.06325 µM
Answers are plain numbers.

// each listed molecule needs a value for relative viability
1. CCNC(=O)c1noc(-c2cc(C(C)C)c(O)cc2O)c1-c1ccc(CN2CCOCC2)cc1 [Luminespib] + Cc1nc(NC(=O)N2CCC[C@H]2C(N)=O)sc1-c1ccnc(C(C)(C)C(F)(F)F)c1 [Alpelisib] (partner 2 µM)
2. CCNC(=O)c1noc(-c2cc(C(C)C)c(O)cc2O)c1-c1ccc(CN2CCOCC2)cc1 [Luminespib] + Cc1nc(Nc2ncc(C(=O)Nc3c(C)cccc3Cl)s2)cc(N2CCN(CCO)CC2)n1 [Dasatinib] (partner 0.075 µM)
3. CCNC(=O)c1noc(-c2cc(C(C)C)c(O)cc2O)c1-c1ccc(CN2CCOCC2)cc1 [Luminespib] + CC(C)C[C@H](NC(=O)[C@H](Cc1ccccc1)NC(=O)c1cnccn1)B(O)O [Bortezomib] (partner 0.002 µM)
4. CCNC(=O)c1noc(-c2cc(C(C)C)c(O)cc2O)c1-c1ccc(CN2CCOCC2)cc1 [Luminespib] + C[C@@H](Oc1cc(-c2cnn(C3CCNCC3)c2)cnc1N)c1c(Cl)ccc(F)c1Cl [Crizotinib] (partner 1 µM)

Outgoing:
[1.08, 0.33, 0.94, 0.873]

// provenance: the supplement of paper PMC10307832
